Assay: Inhibition of human CYP1B1 expressed in MDA-MB-468 cells assessed as potentiation of cisplatin-induced cytotoxicity by measuring cisplatin EC50 at 6.6 uM (Rvb = 6.70+/- 0.7 uM)
value.type: EC50
Entry format: amount then unit.

Notebook: O=c1c(O)c(-c2ccc(O)c(O)c2)oc2cc(O)cc(O)c12 , EC50 read as 1.1 µM

====

Below: a set of entries, each annotated with reported pEC50.
Assay: Inhibition of human CYP1A1 transfected in HEK293 cells assessed as protection against CYP1A1 mediated B[a]P toxicity by measuring B[a]P EC50 at 20 uM by MTT assay (Rvb =1.2+/- 0.3 uM)
// scale note: pEC50 = -log10(conc_M); give the bare number

CC(C)=CCc1cc(C2CC(=O)c3ccc(O)c(CC=C(C)C)c3O2)ccc1O (configuration not stated)
5.64

Proceed to the following item.
Value of pEC50 reported for the molecule O=c1c(O)c(-c2ccc(O)c(O)c2)oc2cc(O)cc(O)c12 is 5.06

====

Here the recorded pEC50 is given for each entry.
Assay: Inhibition of human CYP1B1 expressed in MDA-MB-468 cells assessed as potentiation of cisplatin-induced cytotoxicity by measuring cisplatin EC50 at 20 uM (Rvb = 6.70+/- 0.7 uM)
As a rule, pEC50 stands for the negative log10 of the concentration, concentration in M.

Record summary for O=c1cc(-c2ccccc2)oc2c1ccc1ccccc12 : reported pEC50 = 5.29

For CC(C)=CCc1cc(C2CC(=O)c3ccc(O)c(CC=C(C)C)c3O2)ccc1O (configuration not stated) the molecule record lists pEC50 as 5.28

The values you see were collected from BindingDB's records for doi:10.1016/j.bmcl.2017.11.013.
